src = patent US20190367619A1

# target of assay: T1, human galectin-10-His (recombinant human galectin-10 with TEV-cleavable N-terminal His-tag) (human)
# T1 construct: SEC-MALLS: dimer in solution; also called Gal10-His; humanGal10-His
# T1 chain: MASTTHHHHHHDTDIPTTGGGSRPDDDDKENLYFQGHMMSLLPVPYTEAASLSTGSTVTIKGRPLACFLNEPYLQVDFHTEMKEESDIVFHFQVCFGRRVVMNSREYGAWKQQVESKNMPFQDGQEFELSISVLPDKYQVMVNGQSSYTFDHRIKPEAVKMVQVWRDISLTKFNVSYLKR
# assay explanation: SPR Biacore T3000, mouse IgG1 captured by anti-mouse Fc, galectin-10-His as analyte
# Kd per entry
Output spec: scalar in nM, unitless text.

>>> measured_value("6A05 mouse IgG1 (antibody, V domains shown, also called 6A05 mIgG1) VH: EVQLVESGGGLVQPGGSLRLSCAASGFTFSSYAMSWVRQAPGKGLEWVSAINSGGGWTSYVDSVKGRFTISRDNAKNTLYLQMDSLKPEDTAVYYCTKYSGPELNTQYGMDYWGKGTLVTVSS VL: NFMLTQPSAVSVSLGQTARITCQGGNFGSYYASWYQQKPGQAPVLVIYRDSGRPSGIPERFSGSSSGDTATLTISGAQAEDEADYYCQSGSSSDNTVFGGGTHLTVL")
0.6

Switching to the query record.
Q) In one line, give reported Kd of the entry 6A08 mouse IgG1 (antibody, V domains shown, also called 6A08 mIgG1) VH: QVQLVESGGGLVQPGGSLRLSCAASGFTFSSYAMSWVRQAPGKGPEWVSAINRGGGSTYYADSVKGRFTISRDNAKNTLYLQMNSLKPEDAAVYYCATPGDRLWYYRYDYWGQGAQVTVSS VL: QTVVTQEPSLSVSPGGTVTLTCGLSSGSVTSSNYPGWYQQTPGQAPRLLIYNTNSRYSGVPNRFSGSISGNKAALIISGAQPEDEADYHCALNRVRGTYRVFGGGTHLTVL .
A) 1
